Quick reference for reverse-splicing fitness among some variants
B1: Azoarcus group I ribozyme (parent)
chain: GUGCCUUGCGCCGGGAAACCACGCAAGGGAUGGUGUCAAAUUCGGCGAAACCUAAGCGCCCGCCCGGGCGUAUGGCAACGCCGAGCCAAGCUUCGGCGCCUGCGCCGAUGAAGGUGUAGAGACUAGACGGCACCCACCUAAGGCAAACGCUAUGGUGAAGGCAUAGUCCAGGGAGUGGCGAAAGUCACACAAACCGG

- Variants of: B1
- test name: reverse-splicing fitness (ratio to wild type); higher = more active; in vitro selection; Mg2+ level not given
Simply state the number, no unit and no words.

>  <mutant id>
C82A A111G A120C C150A C169U

>  <reverse-splicing fitness>
0.011

$$$$
>  <mutant id>
C82U A120C A145C C169G U176G

>  <reverse-splicing fitness>
0.00341

$$$$
>  <mutant id>
C82U A111C A145U C150G C169G U176C

>  <reverse-splicing fitness>
0.00532

$$$$
>  <mutant id>
C82G A120G A145G C150A C169U

>  <reverse-splicing fitness>
0.011

$$$$
>  <mutant id>
C82G A111G A120U U176G

>  <reverse-splicing fitness>
0.00562

$$$$
>  <mutant id>
C82A A111G A120C A145U C150G U176G

>  <reverse-splicing fitness>
0.00395

$$$$

input: Entry A111U A120U A145U U176G : reported reverse-splicing fitness = ?
output: 0.0645

input: Entry C82G A111G A120G A145G C169A : reported reverse-splicing fitness = ?
output: 0.0141

input: Entry C82G A111G A145U C169G : reported reverse-splicing fitness = ?
output: 0.0101

input: Entry C82A A111U A120C A145U C150U U176C : reported reverse-splicing fitness = ?
output: 0.0191

input: Entry C82U A120G C150U U176A : reported reverse-splicing fitness = ?
output: 0.0106

input: Entry C82A A111C A120G A145G C169U U176C : reported reverse-splicing fitness = ?
output: 0.0157

input: Entry C82U A120G C150G C169G U176G : reported reverse-splicing fitness = ?
output: 0.00357

input: Entry C82U A111U A145C C150U C169G U176C : reported reverse-splicing fitness = ?
output: 0.0104

input: Entry C82A A120C A145U C150G C169A U176G : reported reverse-splicing fitness = ?
output: 0.00455

input: Entry C82U A111C A120C A145U C169U U176G : reported reverse-splicing fitness = ?
output: 0.0054

input: Entry C82A A111U A120U A145U C150U C169A U176A : reported reverse-splicing fitness = ?
output: 0.00366

input: Entry C82A A111U A120C : reported reverse-splicing fitness = ?
output: 0.0268

input: Entry C82G A111G A120C A145U C150U U176G : reported reverse-splicing fitness = ?
output: 0.00869

input: Entry C82G A111U A120G A145C C150G C169A : reported reverse-splicing fitness = ?
output: 0.00877

input: Entry C82U A120G A145U C150U C169U U176G : reported reverse-splicing fitness = ?
output: 0.00327

input: Entry C82U A111U A120G A145G C150G C169G U176A : reported reverse-splicing fitness = ?
output: 0.00842

input: Entry C82U A145C C150G C169A : reported reverse-splicing fitness = ?
output: 0.00743

input: Entry C82G A111U A120C U176C : reported reverse-splicing fitness = ?
output: 0.0303

input: Entry C82U A111U A120C C169A U176C : reported reverse-splicing fitness = ?
output: 0.0138

input: Entry A120C A145U C150U U176C : reported reverse-splicing fitness = ?
output: 0.562

input: Entry C82U A111U A120C A145U C169U U176A : reported reverse-splicing fitness = ?
output: 0.0155

input: Entry C82U A111C A145G C169G U176G : reported reverse-splicing fitness = ?
output: 0.00682

input: Entry A111G A145C C150U C169A U176G : reported reverse-splicing fitness = ?
output: 0.0059

input: Entry C82G A111G A145G C150G C169U U176G : reported reverse-splicing fitness = ?
output: 0.00803

input: Entry C82G A120C A145U C150A C169A U176A : reported reverse-splicing fitness = ?
output: 0.0178

input: Entry A111G A120C A145U C169G U176C : reported reverse-splicing fitness = ?
output: 0.00882

input: Entry A145U C150A C169G U176G : reported reverse-splicing fitness = ?
output: 0.00588
